- Test system: NCI-H23
- Method: NCI tumour cell line growth inhibition, 48 h
The source made the active and inactive calls. Rule as the data show it: active = GI50 up to about 1.1 µM and inactive = higher.
Valid outcomes are listed here; reply with one: Yes = active, No = inactive

Consider the following illustrative entries.
[[record]]
molecule = "Cc1cc(-c2ccc(Cl)cc2)c(C#N)c(=S)n1C1OC(CO)C(O)C(O)C1O (configuration not stated)"
assigned_category = "No"

[[record]]
molecule = "NS(=O)(=O)c1ccc(NC(=O)c2cccc3cc4ccccc4nc23)cc1"
assigned_category = "No"

[[record]]
molecule = "CCN(C(=N)C#N)c1ccccc1"
assigned_category = "No"


Per the assay record, what outcome was assigned to COCOc1ccc(C(=O)Oc2cccc3c2OC(C)(C)O3)c(OCOC)c1 ?
Yes

Per the assay record, what outcome was assigned to O=C(O)c1ccc(Nc2nc3ccccc3nc2C(=O)O)cc1 ?
No

Per the assay record, what outcome was assigned to O=P(O)(O)C=C=C1CCCCC1 ?
No

Per the assay record, what outcome was assigned to C=CCO[C@]1(CC=C)C(=O)C(=O)OC1C1COC(C)(C)O1 (some centres not stated) ?
No

====

Listing of entries alongside the reported GI50.
- Tested on: SK-MEL-28
- Method: NCI tumour cell line growth inhibition, 48 h
Active and inactive are the calls of the source. Cut-off read from the data, not from the text of the source: active = GI50 up to about 1.1 µM and inactive = higher.

These solved cases illustrate the format of a correct answer.
[[record]]
compound = "CN(C)CCNC(=O)c1cccc2c(NC(CCCNC(=N)N)C(=O)O)c3ccccc3nc12 (stereo not given)"
value_measured = "25.7 µM (inactive)"

[[record]]
compound = "OCN(CO)c1ccc2c(c1)Cc1cc(F)ccc1-2"
value_measured = "24 µM (inactive)"


Consider the compound shown here: [N-]=[N+]=NCC1OCC(O)C(OCc2ccccc2)C1OCc1ccccc1 (stereo not given) What is its recorded GI50?
> 100 µM (inactive)

Consider the compound shown here: CC(=O)CCn1c(=S)sc2ccccc21 What is its recorded GI50?
> 100 µM (inactive)

Consider the compound shown here: CCOC(=O)N1C/C(=C\c2ccc(N(C)C)cc2)C(=O)/C(=C/c2ccc(N(C)C)cc2)C1 What is its recorded GI50?
> 100 µM (inactive)

Consider the compound shown here: Oc1nc(-c2cccc(F)c2)nc2ccccc12 What is its recorded GI50?
> 76.7 µM (inactive)

Consider the compound shown here: C/C(Cc1ccc2c(c1)OCO2)=N\NC(=O)C(C)Sc1nnc(SC(C)C(=O)N/N=C(\C)Cc2ccc3c(c2)OCO3)s1 (stereo not given) What is its recorded GI50?
> 100 µM (inactive)

Consider the compound shown here: N#CC(C(=O)c1ccccc1F)c1nc2cc(C(F)(F)F)ccc2s1 (stereo not given) What is its recorded GI50?
29.4 µM (inactive)

Consider the compound shown here: O=c1[nH]nc(-c2ccccc2)n1/N=C/c1cccnc1 What is its recorded GI50?
> 100 µM (inactive)

Consider the compound shown here: Cn1cnc(/C=C/C#N)c1 What is its recorded GI50?
> 100 µM (inactive)

Consider the compound shown here: O=Cc1ccc2c(c1)CC1(C2)Cc2ccc(C=O)cc2C1 What is its recorded GI50?
23.7 µM (inactive)

Consider the compound shown here: CN(C)C1(N(C)C)Oc2c(c(=O)n(C)c(=O)n2C)C(c2ccc(C(F)(F)F)cc2)C1(F)F (stereo not given) What is its recorded GI50?
> 100 µM (inactive)

====

- Test system: RPMI-8226
- Method: NCI tumour cell line growth inhibition, 48 h
Active and inactive are the calls of the source. Cut-off read from the data, not from the text of the source: active = GI50 up to about 1.1 µM and inactive = higher.
Valid outcomes are listed here; reply with one: class 1 (active), class 0 (inactive)

Consider the following illustrative entries.
[[record]]
compound = "Clc1ccccc1/C=C\\C1(c2ccccc2)OCCO1"
assigned_category = "class 0"

[[record]]
compound = "CO[C@]12CC(=O)C3(C(C[C@H]4CC5CCC6=CC(=O)CC[C@]6(OC(C)=O)C5C[C@@]43C)C1)C1C[C@H]3[C@@H]4CCC5=CC(=O)CC[C@]5(OC(C)=O)[C@H]4CC[C@]3(C)C12 (some centres undefined)"
assigned_category = "class 0"

[[record]]
compound = "O=C(Nc1ccc(N2C(=O)CSC2c2ccccc2O)cc1)c1ccc(N2C(=O)CSC2c2ccccc2O)cc1 (centres undefined)"
assigned_category = "class 0"

[[record]]
compound = "CN(C)c1ccc(O[Si](Oc2ccc(N(C)C)cc2)(Oc2ccc(N(C)C)cc2)Oc2ccc(N(C)C)cc2)cc1"
assigned_category = "class 0"

[[record]]
compound = "COc1cc2c(cc1-c1coc3cc(OCC=C(C)C)ccc3c1=O)OCO2"
assigned_category = "class 0"

[[record]]
compound = "CC1(C)CC(=O)C(CC(C(=O)C(=O)Nc2cc(C(F)(F)F)ccc2Cl)C(=O)c2ccco2)C(=O)C1 (centres undefined)"
assigned_category = "class 0"


Per the assay record, what outcome was assigned to COc1cc(Br)cc2c1O[C@H]1C(=O)CC3CC21CCN3C (some centres undefined) ?
class 0

Per the assay record, what outcome was assigned to N=C(NCc1ccccc1)N/N=C\c1ccnc2ccccc12 ?
class 0

Per the assay record, what outcome was assigned to CC(C)(C)C1=CC(=CC=C2C=CN(CCCCCCCCCCCO)C=C2)C=C(C(C)(C)C)C1=O ?
class 1

Per the assay record, what outcome was assigned to CC(C)N(CCCNc1c2ccccc2nc2cccc([N+](=O)[O-])c12)C(C)C ?
class 1

This collection of values is drawn from ChEMBL document CHEMBL1201862.
